assay: Dissolution time of resin in solvent until the solution is clear (base for coating materials); format: physicochemical; settings: 55% resin, magnetic stirring, time when solution becomes clear and no deposit is found, rosin modified ester resin
Measure: 55% resin (dissolution time at 80 °C, min)

Compound: CCCCCCCCC(=O)OC(C)C [PAOiPr, isopropyl pelargonate]
Measured: 15 min
//
Compound: CCCCCCCCC(=O)OCCCC [PAOBu, butylpelargonate]
Measured: 14 min
//
Compound: CCCCCCCCC(=O)OC [PAOMe, methylpelargonate]
Measured: 16 min

====

45% resin (dissolution time at 80 °C, min) values, listed per item
test: Dissolution time of resin in solvent until the solution is clear (base for coating materials); type: physicochemical; conditions: 45% resin, magnetic stirring, time when solution becomes clear and no deposit is found, maleic resin
Measure: 45% resin (dissolution time at 80 °C, min)

Compound: CCCCCCCCCCCC(=O)OC(C)C [LAOiPr, isopropyl laurate]
Qualifying sign: >
Measured: 60
--
Compound: CCCCCCCCC(=O)OC [PAOMe, methylpelargonate]
Qualifying sign: =
Measured: 10
--
Compound: CCCCCCCCC(=O)OCCCC [PAOBu, butylpelargonate]
Qualifying sign: =
Measured: 15
--
Compound: CCCCCCCCC(=O)OCC(CC)CCCC (centres unmarked) [PAOEtEs, 2-ethyl-hexyl pelargonate]
Qualifying sign: =
Measured: 60
--
Compound: CCCCCCCCCCCC(=O)OCCCC [LAOBu, butyl laurate]
Qualifying sign: >
Measured: 60

====

assay: Dissolution time of resin in solvent until the solution is clear (base for coating materials); format: physicochemical; settings: 55% resin, magnetic stirring, time when solution becomes clear and no deposit is found, maleic resin
Measure: 55% resin (dissolution time at 80 °C, min)

Molecule: CCCCCCCCC(=O)OC(C)C [PAOiPr, isopropyl pelargonate]
Measured: 15 min
--
Molecule: CCCCCCCCC(=O)OC [PAOMe, methylpelargonate]
Measured: 15 min
--
Molecule: CCCCCCCCC(=O)OCCCC [PAOBu, butylpelargonate]
Measured: 20 min
